Attribution: the supplement of paper PMC10307832

Tested on: EKVX
methodNotes: relative viability (nuclei count vs DMSO), 5 days (fraction); higher = more cells survive
condition: first compound 0.02 µM
valueType: relative viability
Output spec: single numeric token, no unit.

Worked examples, 5 compounds total:
compound: CN1CCN(CCOc2cc(OC3CCOCC3)c3c(Nc4c(Cl)ccc5c4OCO5)ncnc3c2)CC1 [Saracatinib] + COc1cc2c(Oc3ccc(NC(=O)C4(C(=O)Nc5ccc(F)cc5)CC4)cc3F)ccnc2cc1OCCCN1CCOCC1 [Foretinib] (partner 0.25 µM)
relative viability: 0.866

compound: CN1CCN(CCOc2cc(OC3CCOCC3)c3c(Nc4c(Cl)ccc5c4OCO5)ncnc3c2)CC1 [Saracatinib] + Nc1nc2[nH]cc(CCc3ccc(C(=O)N[C@@H](CCC(=O)O)C(=O)O)cc3)c2c(=O)[nH]1 [Pemetrexed] (partner 0.2 µM)
relative viability: 0.429

compound: CN1CCN(CCOc2cc(OC3CCOCC3)c3c(Nc4c(Cl)ccc5c4OCO5)ncnc3c2)CC1 [Saracatinib] + CC(C)C[C@H](NC(=O)[C@H](Cc1ccccc1)NC(=O)c1cnccn1)B(O)O [Bortezomib] (partner 0.002 µM)
relative viability: 0.961

compound: CN1CCN(CCOc2cc(OC3CCOCC3)c3c(Nc4c(Cl)ccc5c4OCO5)ncnc3c2)CC1 [Saracatinib] + CC1(C)CCC(c2ccc(Cl)cc2)=C(CN2CCN(c3ccc(C(=O)NS(=O)(=O)c4ccc(N[C@H](CCN5CCOCC5)CSc5ccccc5)c(S(=O)(=O)C(F)(F)F)c4)cc3)CC2)C1 [Navitoclax] (partner 0.5 µM)
relative viability: 0.902

compound: CCNC(=O)c1noc(-c2cc(C(C)C)c(O)cc2O)c1-c1ccc(CN2CCOCC2)cc1 [Luminespib] + CS(=O)(=O)N1CCN(Cc2cc3nc(-c4cccc5[nH]ncc45)nc(N4CCOCC4)c3s2)CC1 [Pictilisib] (partner 1 µM)
relative viability: 0.229

Attention now shifts to the item below.
The reported value for CCNC(=O)c1noc(-c2cc(C(C)C)c(O)cc2O)c1-c1ccc(CN2CCOCC2)cc1 [Luminespib] + C[C@]1(O)C[C@@H](c2nc(-c3ccc4ccc(-c5ccccc5)nc4c3)c3c(N)nccn32)C1 [Linsitinib] (partner 1 µM) in terms of relative viability is 0.721
